experiment: Dissociation constant, pKa of the compound; assay type: physicochemical
observation type: pKa
Answer as a number with no unit attached.

The molecule listed as O[C@H]1CC[C@H](Nc2ncc3nc(Nc4c(F)cc(F)cc4F)n([C@H]4CCOC4)c3n2)CC1 shows pKa equal to 5.47

====

Examples of compounds with documented AUC follow.
assay: AUC in cynomolgus monkey at 1 mg/kg, iv; format: ADME, organism-based, Macaca fascicularis; design: dose 1 mg/kg, route intravenous; details: plasma
Only the number, expressed in µM·h, is required.

O[C@H]1CC[C@H](Nc2ncc3nc(Nc4c(F)cc(F)cc4F)n([C@H]4CCOC4)c3n2)CC1	13

For this compound ( CNC(=O)[C@H]1CC[C@H](Nc2ncc3nc(Nc4c(F)cc(F)cc4F)n([C@H]4CCOC4)c3n2)CC1 ), measured AUC is 4.7

====

assay: Cmax in rat at 10 mg/kg, po; assay type: ADME, organism-based; set-up: dose 10 mg/kg, route oral; conditions: in vivo
observation type: Cmax (nM)
Expressed in nM, but write only the number.

CNC(=O)[C@H]1CC[C@H](Nc2ncc3nc(Nc4c(F)cc(F)cc4F)n([C@H]4CCOC4)c3n2)CC1	1200

The measured Cmax associated with O[C@H]1CC[C@H](Nc2ncc3nc(Nc4c(F)cc(F)cc4F)n([C@H]4CCOC4)c3n2)CC1 reads 700

====

experiment: Cmax in cynomolgus monkey at 10 mg/kg, po; assay type: ADME, organism-based, Macaca fascicularis; parameters: dose 10 mg/kg, route oral; conditions: in vivo
observation type: Cmax
Be sure to follow the number with its unit.

CNC(=O)[C@H]1CC[C@H](Nc2ncc3nc(Nc4c(F)cc(F)cc4F)n([C@H]4CCOC4)c3n2)CC1	11 µM

Recorded Cmax (compound O[C@H]1CC[C@H](Nc2ncc3nc(Nc4c(F)cc(F)cc4F)n([C@H]4CCOC4)c3n2)CC1 ): 11 µM

====

AUC listing for selected compounds.
assay: AUC in cynomolgus monkey at 10 mg/kg, po; assay type: ADME, organism-based, Macaca fascicularis; parameters: dose 10 mg/kg, route oral; details: plasma
Provide a numeric answer, followed by its unit.

CNC(=O)[C@H]1CC[C@H](Nc2ncc3nc(Nc4c(F)cc(F)cc4F)n([C@H]4CCOC4)c3n2)CC1	23 µM·h

# compound O[C@H]1CC[C@H](Nc2ncc3nc(Nc4c(F)cc(F)cc4F)n([C@H]4CCOC4)c3n2)CC1 ; its AUC = 100 µM·h

====

assay: AUC in rat at 10 mg/kg, po; type: ADME, organism-based; parameters: dose 10 mg/kg, route oral; details: plasma
observation type: AUC (µM·h)
Just the number please, in µM·h, no unit attached.

In the examples that follow, each entry is paired with its recorded AUC.
N[C@H]1CC[C@H](Nc2ncc3nc(Nc4ccc(F)cc4F)n(C4CCCC4)c3n2)CC1	0.36
O[C@H]1CC[C@H](Nc2ncc3nc(Nc4ccc(F)cc4F)n(C4CCOCC4)c3n2)CC1	12
O[C@H]1CC[C@H](Nc2ncc3nc(Nc4ccc(F)cc4F)n(C4CCCC4)c3n2)CC1	2.7
O[C@H]1CC[C@H](Nc2ncc3nc(Nc4c(F)cc(F)cc4F)n([C@H]4CCOC4)c3n2)CC1	3.1

Measured AUC of CNC(=O)[C@H]1CC[C@H](Nc2ncc3nc(Nc4c(F)cc(F)cc4F)n([C@H]4CCOC4)c3n2)CC1 : 2.9

====

biological target: Mitogen-activated protein kinase 8 (Homo sapiens, UniProt P45983); assay: Inhibition of hexa-His-tagged JNK1 expressed in baculoviral system using GST-tagged c-Jun as substrate preincubated for 15 mins prior ATP addition measured after 60 mins by scintillation counting
Sequence (P45983 whole entry): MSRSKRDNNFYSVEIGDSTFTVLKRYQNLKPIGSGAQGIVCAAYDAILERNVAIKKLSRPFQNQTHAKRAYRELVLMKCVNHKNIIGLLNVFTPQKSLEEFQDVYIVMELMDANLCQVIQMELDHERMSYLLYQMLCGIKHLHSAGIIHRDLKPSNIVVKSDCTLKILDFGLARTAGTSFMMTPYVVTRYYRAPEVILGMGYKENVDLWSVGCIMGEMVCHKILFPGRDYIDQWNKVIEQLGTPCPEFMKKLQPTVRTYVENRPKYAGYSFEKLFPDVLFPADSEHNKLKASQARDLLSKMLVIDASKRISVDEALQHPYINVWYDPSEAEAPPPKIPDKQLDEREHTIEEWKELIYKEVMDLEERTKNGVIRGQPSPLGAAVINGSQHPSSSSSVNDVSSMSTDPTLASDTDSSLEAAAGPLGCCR
Entries whose IC50 is below 300 nM take t; entries at or above 300 nM take f.

// known answers, use as guide
C[C@]1(O)CC[C@H](Nc2ncc3nc(Nc4ccc(F)cc4F)n(C4CCOCC4)c3n2)CC1	f
CCO[C@H]1CC[C@H](Nc2ncc3nc(Nc4ccc(F)cc4F)n(C4CCOCC4)c3n2)CC1	f
CNC(=O)[C@H]1CC[C@H](Nc2ncc3nc(Nc4c(F)cc(F)cc4F)n([C@H]4CCOC4)c3n2)CC1	t

Inquiry: Identify whether the compound CC(C)Nc1ncc2nc(Nc3c(F)cc(F)cc3F)n([C@H]3CC[C@@H](C(N)=O)CC3)c2n1 records IC50 below 300 nM.
Reply text: t

Inquiry: API: query returns whether the compound falls strictly under 300 nM in IC50. Query: CC(C)(O)[C@H]1CC[C@H](Nc2ncc3nc(Nc4ccc(F)cc4F)n(C4CCOCC4)c3n2)CC1
Reply text: f

Inquiry: Bench note: check whether O[C@H]1CC[C@H](Nc2ncc3nc(Nc4ccc(F)cc4F)n(C4CCCC4)c3n2)CC1 shows IC50 below 300 nM
Reply text: t

Inquiry: Problem: For the compound Fc1ccc(Nc2nc3cnc(C4CCOCC4)nc3n2C2CCCC2)c(F)c1 , is IC50 under 300 nM?
Reply text: f

Inquiry: Does the reported IC50 of CC(C)Nc1ncc2nc(Nc3c(F)cc(F)cc3F)n([C@H]3CC[C@@H](C(=O)NC4CC4)CC3)c2n1 stay below 300 nM?
Reply text: t

Inquiry: Take the compound CC(C)Nc1ncc2nc(Nc3c(F)cc(F)cc3F)n([C@H]3CC[C@@H](C(=O)N4CCOCC4)CC3)c2n1 and say whether its IC50 is less than 300 nM.
Reply text: t

====

molecular target: Mitogen-activated protein kinase 8 (Homo sapiens, UniProt P45983); experiment: Inhibition of hexa-His-tagged JNK1 expressed in baculoviral system using GST-tagged c-Jun as substrate preincubated for 15 mins prior ATP addition measured after 60 mins by scintillation counting
# key: entry, value: IC50
Record the value in nM, omitting the unit from your answer.

Here's what some known entries look like.
CS(=O)(=O)N[C@H]1CC[C@H](Nc2ncc3nc(Nc4ccc(F)cc4F)n(C4CCOCC4)c3n2)CC1	880
CC(C)(O)[C@H]1CC[C@@H](c2ncc3nc(Nc4ccc(F)cc4F)n(C4CCOCC4)c3n2)C1	1300
O[C@H]1CC[C@H](Nc2ncc3nc(Nc4ccc(F)cc4F)n(C4CCOCC4)c3n2)CC1	390

Then this compound:
Memo: CC(C)(O)[C@H]1CC[C@H](Nc2ncc3nc(Nc4ccc(F)cc4F)n(C4CCCC4)c3n2)CC1 , reported IC50: 170

Hey, just so you know, these numbers are from ChEMBL document CHEMBL1949521.
